Reported values: IC50 for human thrombin (Homo sapiens, UniProt P00734), one per item.
quantity_name: IC50 (µM)

[
  {
    "smiles_repr": "N=C(N)NCCC[C@H](NC(=O)Cn1c(=O)c(NS(=O)(=O)Cc2ccccc2)cn(Cc2ccccc2)c1=O)C(=O)c1nccs1",
    "reported_measurement": 0.3
  },
  {
    "smiles_repr": "N=C(N)c1ccc(CNC(=O)Cn2c(=O)c(NS(=O)(=O)Cc3ccccc3)cn(Cc3ccccc3)c2=O)cc1",
    "reported_measurement": 13
  }
]

* * *

pIC50: −log10 of the molar value.
These molecules were tested on human factor Xa (Homo sapiens); pIC50 is the recorded read-out.
Sequence (P00742 235-488 limits assumed): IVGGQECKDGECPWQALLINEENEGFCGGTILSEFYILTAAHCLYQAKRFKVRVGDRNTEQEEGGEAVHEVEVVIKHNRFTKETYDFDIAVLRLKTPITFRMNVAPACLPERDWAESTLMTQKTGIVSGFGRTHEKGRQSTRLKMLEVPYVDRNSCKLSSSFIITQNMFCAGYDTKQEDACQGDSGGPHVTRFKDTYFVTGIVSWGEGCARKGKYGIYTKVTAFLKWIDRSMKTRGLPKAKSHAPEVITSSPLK
Sequence (P00742 41-179 limits assumed): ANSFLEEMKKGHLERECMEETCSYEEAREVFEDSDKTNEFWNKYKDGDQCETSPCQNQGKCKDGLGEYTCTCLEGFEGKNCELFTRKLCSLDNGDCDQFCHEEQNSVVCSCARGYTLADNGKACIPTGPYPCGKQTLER

[
  {
    "molecule": "N=C(N)NCCC[C@H](NC(=O)Cn1c(=O)c(NS(=O)(=O)Cc2ccccc2)cn(Cc2ccccc2)c1=O)C(=O)c1nccs1 [Example 2]",
    "pIC50": 6.70
  },
  {
    "molecule": "N=C(N)c1ccc(CNC(=O)Cn2c(=O)c(NS(=O)(=O)Cc3ccccc3)cn(Cc3ccccc3)c2=O)cc1 [Example 1]",
    "pIC50": 4.59
  }
]

* * *

- system: recombinant soluble tissue factor and recombinant human factor VIIa (Homo sapiens, UniProt P08709)
- Construct: (factor VIIa); soluble TF made in house
- Sequence (P08709 213-466 limits assumed): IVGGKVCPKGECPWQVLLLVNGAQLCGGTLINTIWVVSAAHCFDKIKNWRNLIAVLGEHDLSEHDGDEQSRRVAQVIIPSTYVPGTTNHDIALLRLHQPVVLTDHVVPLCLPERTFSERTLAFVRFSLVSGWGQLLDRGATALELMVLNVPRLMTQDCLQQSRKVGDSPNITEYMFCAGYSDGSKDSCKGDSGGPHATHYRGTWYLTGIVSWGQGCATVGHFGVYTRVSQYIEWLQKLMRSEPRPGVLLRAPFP
- Sequence (P08709 61-212 limits assumed): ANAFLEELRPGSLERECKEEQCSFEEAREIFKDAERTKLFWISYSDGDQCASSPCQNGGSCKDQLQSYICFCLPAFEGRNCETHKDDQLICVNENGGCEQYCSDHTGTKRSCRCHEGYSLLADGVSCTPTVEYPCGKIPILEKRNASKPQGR
- Sequence (P13726 33-251 partner limits assumed): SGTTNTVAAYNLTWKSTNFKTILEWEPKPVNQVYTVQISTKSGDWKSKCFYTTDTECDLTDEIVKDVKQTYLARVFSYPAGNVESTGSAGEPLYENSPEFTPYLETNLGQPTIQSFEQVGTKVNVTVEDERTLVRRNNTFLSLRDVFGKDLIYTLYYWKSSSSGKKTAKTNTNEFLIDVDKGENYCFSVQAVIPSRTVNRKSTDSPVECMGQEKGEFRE
- method_notes: TF-VIIa Assay
- assay_conditions: chromogenic substrate, 60 min at room temperature, pH 8.0
pIC50: −log10 of the molar value.

[
  {
    "smiles_repr": "N=C(N)NCCC[C@H](NC(=O)Cn1c(=O)c(NS(=O)(=O)Cc2ccccc2)cn(Cc2ccccc2)c1=O)C(=O)c1nccs1",
    "relation_symbol": "=",
    "pIC50": 4.89
  },
  {
    "smiles_repr": "N=C(N)c1ccc(CNC(=O)Cn2c(=O)c(NS(=O)(=O)Cc3ccccc3)cn(Cc3ccccc3)c2=O)cc1",
    "relation_symbol": "<",
    "pIC50": 4.00
  }
]
